tested on: ATP; assay: switch fluorescence ratio, 500 uM ATP over buffer (Cy3 cluster intensity, sum of 5 cycles each) (fold (ratio)); higher = stronger signal-on switching upon ATP binding; sequences stand for … in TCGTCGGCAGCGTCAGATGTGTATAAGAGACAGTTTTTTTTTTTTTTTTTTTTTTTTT…TC; conditions: aptamer strand: ATP DNA aptamer (quencher-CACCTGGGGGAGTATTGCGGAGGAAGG + anchor), 100 nM annealed; ATP concentration: 500 uM;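 also: ATP exposure 15 min at 22 °C before imaging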

Seq text	Test system	switch fluorescence ratio
ATAGACGTTT	ATP	0.994
AATTGGTCAT	ATP	1
CCGGGCGATG	ATP	1.6
GAATTCCGTA	ATP	1.03
ATTACGGTGG	ATP	1
TTCCAGTAAT	ATP	1.01
GCGCTTTTGG	ATP	0.986
TGAGTTGGGT	ATP	0.986
AGTTGCTTGG	ATP	1.01
ACCGCGGTCG	ATP	0.974
TCGTCAGGTG	ATP	2.48
CGGGGGTGAG	ATP	1.04
TTCGTCTGGG	ATP	1.03
TCATGCAACG	ATP	1.06
TGGTGTCTAT	ATP	1.01
